- EXPERIMENTAL_SYSTEM: SARS-CoV-2 (2019-nCoV) Spike Protein (S1 Subunit, Fc Tag) (Sino 40591-V02H) (SARS-CoV-2, UniProt P0DTC2 16-685)
- ASSAY_COMMENT: Luminex bead binding, supernatant
MEASUREMENT_NAME: Binding signal (MFI)

BINDER	MEASUREMENT_NAME	ASSAY_RESULT
mAb11006 (antibody, V domains shown) VH: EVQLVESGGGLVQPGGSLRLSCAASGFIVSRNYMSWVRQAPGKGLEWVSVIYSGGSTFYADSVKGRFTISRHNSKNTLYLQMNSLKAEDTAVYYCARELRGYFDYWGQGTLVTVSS VL: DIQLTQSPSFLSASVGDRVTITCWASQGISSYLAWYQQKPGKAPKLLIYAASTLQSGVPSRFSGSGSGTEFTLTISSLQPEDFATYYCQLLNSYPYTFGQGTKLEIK	Binding signal (MFI)	2050
mAb11008 (antibody, V domains shown) VH: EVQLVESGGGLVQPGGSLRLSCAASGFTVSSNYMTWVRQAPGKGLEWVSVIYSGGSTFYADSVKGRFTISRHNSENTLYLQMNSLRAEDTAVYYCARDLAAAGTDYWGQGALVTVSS VL: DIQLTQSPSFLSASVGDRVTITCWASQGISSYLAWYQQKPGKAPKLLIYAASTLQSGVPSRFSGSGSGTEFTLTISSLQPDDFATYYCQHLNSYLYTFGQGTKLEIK	Binding signal (MFI)	6880
mAb11004 (antibody, V domains shown) VH: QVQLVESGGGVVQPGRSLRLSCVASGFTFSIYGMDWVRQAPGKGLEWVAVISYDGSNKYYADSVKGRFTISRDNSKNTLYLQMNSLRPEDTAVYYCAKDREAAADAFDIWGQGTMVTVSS VL: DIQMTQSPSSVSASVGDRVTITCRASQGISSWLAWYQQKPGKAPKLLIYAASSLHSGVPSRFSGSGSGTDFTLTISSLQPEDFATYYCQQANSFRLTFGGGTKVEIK	Binding signal (MFI)	4480
